Every entry's value here was drawn from ChEMBL document CHEMBL5338818.

# test: Stability in human plasma assessed as compound remaining at 100 uM after 10 mins by LC-MS/MS analysis (reference value: 100%)
# Assay type: ADME, cell-free
# experimental conditions: read-out: Stability
measured property: remaining at 10 min, 100 µM (%)
Write the answer as a number in %, unit excluded.

Look at this compound and give its reported remaining at 10 min, 100 µM. Cc1cc(Nc2nc(NCc3ccc(F)cc3F)nc3c2cnn3C2CCN(C(=O)C3CCN(c4ccc5c(c4)C(=O)N(C4CCC(=O)NC4=O)C5=O)CC3)CC2)n[nH]1 (stereo unspecified)
93.9

---

# test: Half life in ICR mouse at 2 mg/kg, iv measured upto 24 hrs by LC-M/MS analysis
# Type: ADME, organism-based
# experimental conditions: in vivo
measured property: half-life (min)
Write the answer as a number in min, unit excluded.

Look at this compound and give its reported half-life. Cc1cc(Nc2nc(NCc3ccc(F)cc3F)nc3c2cnn3C2CCN(C(=O)C3CCN(c4ccc5c(c4)C(=O)N(C4CCC(=O)NC4=O)C5=O)CC3)CC2)n[nH]1 (stereo unspecified)
320
